- tgt: human Opioid Receptor Delta 1 (Opiate D1), OPRD1 (gene 4985)
- protocol.text: NVS_GPCR_hOpiate_D1: NovaScreen (NVS) G Protein-Coupled Receptor Assay for human Opioid Receptor Delta 1 (Opiate D1) (AID 2283280)
Records with an inconclusive call do not appear. The source made the active and inactive calls. Rule for the calls: active = hit-call score of the fitted dose curve at least 0.9, where 1 is the maximum; inconclusive = response in the unintended direction; inactive = score below 0.9.
I would appreciate it if you answered using one of these outcomes: Y (active), N (inactive)

As a guide, the following entries are already answered.
Dear colleague, could you share the recorded outcome for CC(=O)S[C@@H]1CC2=CC(=O)CC[C@]2(C)[C@H]2CC[C@@]3(C)[C@@H](CC[C@@]34CCC(=O)O4)[C@H]12 when you have a moment?
Y

Can you handle S=C(S)NCCNC(=S)S.[Mn+2].[S-]C([S-])=NCCN=C([S-])[S-].[Zn+2] next?
N

Can you handle CC(C)(c1ccc(O)cc1)c1ccc(O)cc1 next?
Y

Further cases:
Dear colleague, could you share the recorded outcome for Oc1ccc(C(c2ccc(O)cc2)C(Cl)(Cl)Cl)cc1 when you have a moment?
Y

---

- Read-out: Transforming growth factor beta 1 (TGFb1), TGFB1 (gene 7040)
- protocol.text: BSK_KF3CT_TGFb1: BioMAP Diversity Plus: KF3CT Assay for Transforming growth factor beta 1 (TGFb1) Biomarker Activity (AID 2283072)
- condition.details: primary human keratinocytes with fibroblasts; actives raise or lower the signal
Activity calls are given as the source filed them. How the source made its calls: active means hit-call score of the fitted dose curve at least 0.9, where 1 is the maximum; inactive means score below 0.9.
reported.metric: AC50

Some solved entries appear below for comparison.
// query AC50 value for entry O=C(O)c1ccccc1
inactive

Can you handle O=C(Nc1ccc([N+](=O)[O-])cc1Cl)c1cc(Cl)ccc1O next?
inactive

Can you handle CC(=O)S[C@@H]1CC2=CC(=O)CC[C@]2(C)[C@H]2CC[C@@]3(C)[C@@H](CC[C@@]34CCC(=O)O4)[C@H]12 next?
inactive

Can you handle CC(C)(C)[C@@H](O)[C@@H](Cc1ccc(Cl)cc1)n1cncn1 next?
inactive

Can you handle CCCCC(CC)CN1C(=O)C2C3C=CC(C3)C2C1=O (configuration not stated) next?
inactive

Further cases:
// query AC50 value for entry CCCCOCCOCCOCc1cc2c(cc1CCC)OCO2
inactive

Can you handle O=C(c1ccc(O)cc1O)c1ccc(O)cc1O next?
inactive

Can you handle S=C(S)NCCNC(=S)S.[Mn+2].[S-]C([S-])=NCCN=C([S-])[S-].[Zn+2] next?
inactive

---

- Read-out: CD40, CD40 (gene 958)
- protocol.text: BSK_LPS_CD40: BioMAP Diversity Plus: LPS Assay for CD40 Biomarker Activity (AID 2283076)
- condition.details: primary human HUVEC with PBMC; actives raise or lower the signal
Active and inactive are the calls of the source. Rule for the calls: active = hit-call score of the fitted dose curve at least 0.9, where 1 is the maximum; inactive = score below 0.9.
I would appreciate it if you answered using one of these outcomes: active, inactive

Dear colleague, could you share the recorded outcome for COc1c(Cl)ccc(Cl)c1C(=O)O when you have a moment?
inactive

Can you handle CCOC(=O)C(C)Oc1ccc(Oc2nc3ccc(Cl)cc3o2)cc1 (stereo not given) next?
inactive

---

- protocol.text: APR_HepG2_MitoticArrest_72hr: Apredica 72-hour HepG2 Assay for Mitotic Arrest (AID 2282918)
- condition.details: high-content imaging, actives raise or lower the signal
Activity calls are given as the source filed them. The calls were made as follows: active = hit-call score of the fitted dose curve at least 0.9, where 1 is the maximum; inactive = score below 0.9.
I would appreciate it if you answered using one of these outcomes: true (1) (active), false (0) (inactive)

As a guide, the following entries are already answered.
Dear colleague, could you share the recorded outcome for C=CCOC(Cn1ccnc1)c1ccc(Cl)cc1Cl (stereo not given) when you have a moment?
true (1)

Can you handle CCOC(=O)C(C)Oc1ccc(Oc2nc3ccc(Cl)cc3o2)cc1 (stereo not given) next?
false (0)

Can you handle CN(C)C(=O)Nc1ccc(Cl)c(Cl)c1 next?
false (0)

Can you handle CC1(C)C(C=C(Cl)Cl)C1C(=O)OCc1cccc(Oc2ccccc2)c1 (stereo not given) next?
false (0)

Further cases:
Dear colleague, could you share the recorded outcome for CCCN(CCC)c1c([N+](=O)[O-])cc(C(F)(F)F)c(N)c1[N+](=O)[O-] when you have a moment?
false (0)

Where these numbers come from: PubChem BioAssay (EPA / NIEHS)
